Collected Emax values appear next to each entry.
Test system: beta-TC6 cells
Test method notes: Insulin HTRF assay, relative activity Ar normalized to sunitinib
Format: cell-based
Experimental parameters: Mus musculus, normalized to positive control sunitinib (5 µM = 100%), Table 10
Measured parameter: Emax

Chemical smiles	Reported result
Cc1ccc(CNc2ccc3ncc(-c4ccc(C(=O)NCCN(C)C)cc4)n3n2)c(C)c1	20 to 50%
COc1ccc(-c2cnc3ccc(N[C@H](CO)C(C)C)nn23)c(OC)c1	20 to 50%
NC(=O)c1ccc(-c2cnc3ccc(Cc4ccc(F)cc4)nn23)cc1	20 to 50%
COc1ccc(-c2nnc3ccc(-c4cccc(N(C)C)c4)cn23)cc1OC	50 to 100%
Fc1cccc(-c2cnc3cnc(-c4ccccc4)cn23)c1	20 to 50%
COc1ccc(-c2nnc3ccc(-c4ccc(S(C)(=O)=O)cc4)cn23)cc1OC	10 to 20%
CC(=O)c1cccc(-c2cnc3cnc(-c4ccc(C(=O)NCCN(C)C)cc4)cn23)c1	20 to 50%
